Assay: AUC (0 to infinity) in Wistar rat at 5 mg/kg, po measured up to 24 hrs post dose by HPLC-MS/MS analysis
Format: ADME, organism-based
Parameters: dose 5 mg/kg, time infinity, route oral
Settings: in vivo
property-name: AUC(0-inf)

• CC1CC[C@@H]2C(C)(C)[C@H](O)CC[C@@]2(C)[C@@H]1/C=C/c1ccc(-c2cccc(F)c2)cn1 (single isomer, unassigned) = 1450 ng·h/mL

---

Reported IC50 values are given for each entry in this list.
Target: Proteinase-activated receptor 1 (Homo sapiens, UniProt P25116)
Sequence (P25116 whole entry): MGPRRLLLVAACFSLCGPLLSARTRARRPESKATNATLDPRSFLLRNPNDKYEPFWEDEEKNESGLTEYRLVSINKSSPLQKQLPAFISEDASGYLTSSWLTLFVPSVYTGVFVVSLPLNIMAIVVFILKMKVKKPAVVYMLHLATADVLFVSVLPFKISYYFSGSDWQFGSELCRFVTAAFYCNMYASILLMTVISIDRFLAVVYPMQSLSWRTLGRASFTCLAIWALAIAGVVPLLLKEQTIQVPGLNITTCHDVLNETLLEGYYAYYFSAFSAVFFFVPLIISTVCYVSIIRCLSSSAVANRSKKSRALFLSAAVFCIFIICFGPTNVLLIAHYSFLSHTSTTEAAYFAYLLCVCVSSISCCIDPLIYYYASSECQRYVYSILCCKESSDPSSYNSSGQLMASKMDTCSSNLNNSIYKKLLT
Assay: Antagonist activity at human PAR1 expressed in HEK293 cells co-expressing Galpha15 assessed as inhibition of haTRAP-induced calcium mobilization preincubated for 15 mins followed by haTRAP addition by calcium-4 dye based FLIPR assay
property-name: IC50

• CC1(C)OC[C@@]2(C)[C@H]3CC[C@@]4(CO4)[C@@H](/C=C/c4ccc(-c5cccc(C(F)(F)F)c5)cn4)[C@]3(C)CC[C@H]2O1 = > 100 µM
• CCOC(=O)O[C@@H]1CC[C@@]2(C)[C@H](/C=C/c3ccc(-c4cccc(F)c4)cn3)[C@@H](C)CC[C@@H]2C1(C)C = > 100 µM
• CC1CC[C@@H]2C(C)(C)[C@H](OC(N)=O)CC[C@@]2(C)[C@@H]1/C=C/c1ccc(-c2cccc(F)c2)cn1 (single isomer, unassigned) = 32 µM
• CCCC(=O)O[C@@H]1CC[C@@]2(C)[C@H](/C=C/c3ccc(-c4cccc(F)c4)cn3)[C@@]3(CC[C@@H]2[C@]1(C)C(=O)OC)CO3 = > 100 µM
• C[C@@]1(/C=C/c2ccc(-c3cccc(F)c3)cn2)[C@H]2CC[C@@H]3COC(=O)[C@H]3[C@]2(C)CC[C@@H]1O = > 100 µM
• C[C@@]1(C=O)[C@H](O)CC[C@@]2(C)[C@H](/C=C/c3ccc(-c4cccc(F)c4)c[n+]3[O-])[C@@]3(CC[C@H]12)CO3 = > 100 µM
